target-system: Endothelin-1 receptor (Oryctolagus cuniculus)
experiment-notes: Tested for antagonistic activity against Endothelin A receptor in the rabbit renal artery vascular smooth muscle cells.
Overview of recorded pIC50 for various compounds
Please keep in mind that pIC50 is minus log10 of the molar concentration; only the number is needed.

- compound: "COc1ccc(C2(O)OC(=O)C(c3ccc4c(c3)OCO4)=C2Cc2ccc(OC)c(C)c2)cc1 (configuration not stated)"
  readout-kind: "pIC50"
  recorded-result: 8.22

--- query ---
Give its pIC50 value. Item: COc1ccc(CC2=C(c3ccc(Cl)c(Cl)c3)C(=O)OC2(O)c2ccc(OC)cc2)cc1 (configuration not stated)
6.51
